This collection of values is drawn from PubChem BioAssay (NCI).

- Tested on: UO-31 renal
- experiment.summary: NCI-60 one-dose screen, 48 h (100 = growth as untreated, 0 = no growth, -100 = all killed)
- assay.context: 10 µM unless noted
- Protocol: Growth inhibition of the UO-31 human tumor cell line is measured as a screen for anti-cancer activity. Cells are grown in 96 well plates and exposed to the test compound for 48 hours. Compounds are tested at a single concentration, which is 10^-5 M for most compounds. The reported endpoint is percent growth (GI% or GIPRCNT), where numbers from 0 - 100% represent growth inhibition, and numbers from -100% - 0 represent cell death. For example, a value of 40 represents 60% growth inhibition. […]
Compounds without any hit were thinned out: in the full panel of roughly 83,000, 20% have a hit. Active and inactive are the calls of the source. The calls were made as follows: active = growth percent below 10; inactive = the rest.
Each entry below lists one item and its recorded growth value.

| compound | tested.target | growth |
| --- | --- | --- |
| O=C(Cn1c[n+](CC(=O)c2ccc([N+](=O)[O-])cc2)c2ccccc21)Nc1cccc2cccnc12 | UO-31 renal | 66% (inactive) |
| CCNC(=O)Oc1ccc(/C(=C(\C)c2ccccc2)c2ccc(OCCCN(C)C)cc2)cc1 | UO-31 renal | 55.4% (inactive) |
| O=C(/C=C/c1c(-c2ccc(Cl)cc2)nn(-c2ccccc2)c1C(F)(F)F)c1ccc(Cl)cc1 | UO-31 renal | 74.1% (inactive) |
| OC(c1cccc(C(F)(F)F)c1)c1cnccc1NC1CCCCC1 (centres undefined) | UO-31 renal | 52.2% (inactive) |
| Cn1ccnc1C(=O)/C=C/c1ccc(CC(=O)NC2CCCCC2)cc1 | UO-31 renal | 60.4% (inactive) |
| Cc1ccc(CNc2c3ccccc3nc3cc(NC(=O)CCN4CCCC4)ccc23)cc1 | UO-31 renal | 3.83% (active) |
| CCCCCC(=O)Oc1ccc(/C(=C(\C)c2ccccc2)c2ccc(OCCN3CCCCC3)cc2)cc1 | UO-31 renal | 59.8% (inactive) |
| Cc1ccc(S(=O)(=O)Nn2c3c(cc(-c4nc5ccccc5s4)c2=O)CCCCCC3)cc1 | UO-31 renal | 78.9% (inactive) |
| COc1cc2c(c(O)c1Br)C(=O)c1c(O)cc(C[C@H](C)O)cc1[C@H]2[C@H]1c2cc(C[C@H](C)O)cc(O)c2C(=O)c2c1cc(OC)c(Br)c2O | UO-31 renal | -29% (active) |
| Cn1c2ccccc2c2c3c(c4c5ccccc5n(C)c4c21)C(=O)OC3 | UO-31 renal | 61% (inactive) |
| Cc1ccc(-c2nc3ccccn3c2/C=C2/C(=O)Nc3cc(Cl)ccc32)cc1 | UO-31 renal | 62.5% (inactive) |
| Cc1nc2sccn2c1-c1cn2ccsc2n1 | UO-31 renal | 89.7% (inactive) |
| COc1ccc(C(C)=O)c(OC)c1 | UO-31 renal | 97.4% (inactive) |
| CCOC(=O)Nc1ccc(-c2ccc3c(c2)NC(=O)/C3=C\c2ccc[nH]2)cc1 | UO-31 renal | 72.6% (inactive) |
| C=C(C)[C@@H]1CC[C@]2(CN)CC[C@]3(C)[C@H](CC[C@@H]4[C@@]5(C)CCCNC(C)(C)[C@@H]5CC[C@]43C)[C@@H]12 | UO-31 renal | 5.31% (active) |
| O=C1c2ccccc2CCC12OC2c1cn(-c2ccccc2)nc1-c1ccc(Cl)cc1 (centres undefined) | UO-31 renal | 88.6% (inactive) |
| CCOC(=O)c1cc(C(=O)c2cc(OC)cc(OC)c2)n2ccc3ccccc3c12 | UO-31 renal | 95.3% (inactive) |
| COc1ccc(/C=C2\Oc3cc(OCCCN4CCCCC4)ccc3C2=O)cc1OC | UO-31 renal | 67.9% (inactive) |
| COc1ccccc1NS(=O)(=O)c1cccc(C(=O)Nc2ccc(Br)cc2)c1 | UO-31 renal | 27.3% (inactive) |
